- test: Drug level in rat liver at 10 mg/kg, po after 6 hrs
- Assay type: ADME, organism-based
- Set-up: dose 10 mg/kg, route oral
- conditions: read-out: Drug uptake
For each of the molecules below, state its concentration at 6 h.
One number for each entry, in nM.

Worked cases, concentration at 6 h given:
{"columns": ["molecule", "readout.type", "value.measured"],
 "data": [
  ["CC(C)(C)[C@H](NC(=O)N[C@H](C(=O)c1ccccn1)C1CCCCC1)C(=O)N1C[C@H]2[C@@H]([C@H]1C(=O)NC(CC1CC1)C(=O)C(N)=O)C2(C)C (mixture of isomers)", "concentration at 6 h", 800],
  ["C#CCCC(NC(=O)[C@@H]1[C@@H]2[C@H](CN1C(=O)[C@@H](NC(=O)N[C@H](C(=O)C1CC1)C1CCCCC1)C(C)(C)C)C2(C)C)C(=O)C(=O)NCC=C (mixture of isomers)", "concentration at 6 h", 8500],
  ["CC(C)(C)[C@H](NC(=O)N[C@H](C(=O)C1CC1)C1CCCCC1)C(=O)N1C[C@H]2[C@@H]([C@H]1C(=O)NC(CC1CC1)C(=O)C(N)=O)C2(C)C (mixture of isomers)", "concentration at 6 h", 2700],
  ["C#CCCC(NC(=O)[C@@H]1[C@@H]2[C@H](CN1C(=O)[C@@H](NC(=O)N[C@H](C(=O)C1CC1)C(C)C)C(C)(C)C)C2(C)C)C(=O)C(=O)NC1CC1 (mixture of isomers)", "concentration at 6 h", 900]
]}

We now examine a further molecule.
# input // concentration at 6 h lookup, key: C#CCCC(NC(=O)[C@@H]1[C@@H]2[C@H](CN1C(=O)[C@@H](NC(=O)N[C@H](C(=O)C1CC1)C1CCCCC1)C(C)(C)C)C2(C)C)C(=O)C(=O)NC1CC1 (mixture of isomers)
# output 2900

###

- test: Volume of distribution at steady state in rat at 10 mg/kg, po and at 10 mg/kg, iv
- Format: ADME, organism-based
- conditions: in vivo, read-out: Vdss
readout.type: Vd (L/kg)
Give bare numbers, in L/kg.

# input Find the recorded Vd belonging to CC(C)(C)[C@H](NC(=O)NC1(C(=O)OCc2ccccc2)CCCCC1)C(=O)N1C[C@H]2[C@@H]([C@H]1C(=O)NC(CC1CC1)C(=O)C(N)=O)C2(C)C (mixture of isomers) and report it.
# output 3.5

###

- test: Half life in cynomolgus monkey at 3 mg/kg, iv
- Format: ADME, organism-based, Macaca fascicularis
- Parameters: dose 3 mg/kg, route intravenous
- conditions: in vivo
readout.type: half-life

# input Which half-life value belongs to CC(C)(C)[C@H](NC(=O)NC1(C(=O)OCc2ccccc2)CCCCC1)C(=O)N1C[C@H]2[C@@H]([C@H]1C(=O)NC(CC1CC1)C(=O)C(N)=O)C2(C)C (mixture of isomers) ?
# output 3.1 h

###

- test: Inhibition of HCV NS4A-tethered single chain NS3 serine protease by spectrophotometric assay
- Parameters: species or system Hepacivirus hominis
readout.type: pKi
Numbers only, as −log10 of the molar value.

{"columns": ["compound", "pKi"],
 "data": [
  ["CC(C)C(=O)[C@@H](NC(=O)N[C@H](C(=O)N1C[C@H]2[C@@H]([C@H]1C(=O)NC(CC1CC1)C(=O)C(N)=O)C2(C)C)C(C)(C)C)C(C)C (mixture of isomers)", 7.92]
]}

Please supply pKi for each of the following items, keeping them in order.
1. CC(C)[C@H](NC(=O)N[C@H](C(=O)N1C[C@H]2[C@@H]([C@H]1C(=O)NC(CC1CC1)C(=O)C(N)=O)C2(C)C)C(C)(C)C)C(=O)NS(=O)(=O)c1ccccc1 (mixture of isomers)
2. CC(C)(C)[C@H](NC(=O)NC1(C(=O)OCc2ccccc2)CCCCC1)C(=O)N1C[C@H]2[C@@H]([C@H]1C(=O)NC(CC1CC1)C(=O)C(N)=O)C2(C)C (mixture of isomers)
3. CC(C)(C)[C@H](NC(=O)N[C@H](C(=O)OCc1ccccc1)C1CC1)C(=O)N1C[C@H]2[C@@H]([C@H]1C(=O)NC(CC1CC1)C(=O)C(N)=O)C2(C)C (mixture of isomers)
4. CC(C)(C)[C@H](NC(=O)N[C@H](C(=O)N1C[C@H]2[C@@H]([C@H]1C(=O)NC(CC1CC1)C(=O)C(N)=O)C2(C)C)C(C)(C)C)C(=O)OCc1ccccc1 (mixture of isomers)

# output
1. 8.22
2. 7.31
3. 8.00
4. 7.17

###

- test: Inhibition of HCV NS4A-tethered single chain NS3 serine protease by spectrophotometric assay
- Set-up: species or system Hepacivirus hominis
readout.type: Ki (nM)
One number for each entry, in nM.

# return Ki for each item in the list
1. CC(C)[C@@](C)(NC(=O)N[C@H](C(=O)N1C[C@H]2[C@@H]([C@H]1C(=O)NC(CC1CC1)C(=O)C(N)=O)C2(C)C)C(C)(C)C)C(=O)OCc1ccccc1 (mixture of isomers)
2. CC(C)(C)[C@H](NC(=O)NC1(C(=O)NS(=O)(=O)c2ccccc2)CCCCC1)C(=O)N1C[C@H]2[C@@H]([C@H]1C(=O)NC(CC1CC1)C(=O)C(N)=O)C2(C)C (mixture of isomers)
3. CC(C)(C)[C@H](NC(=O)NC1(C(=O)OCc2ccoc2)CCCCC1)C(=O)N1C[C@H]2[C@@H]([C@H]1C(=O)NC(CC1CC1)C(=O)C(N)=O)C2(C)C (mixture of isomers)
4. CC(C)(C)[C@H](NC(=O)NC1(C(=O)NCc2ccccc2)CCCCC1)C(=O)N1C[C@H]2[C@@H]([C@H]1C(=O)NC(CC1CC1)C(=O)C(N)=O)C2(C)C (mixture of isomers)
5. CC(C)(C)[C@H](NC(=O)NC1(C(=O)OCc2ccccc2)CCCC1)C(=O)N1C[C@H]2[C@@H]([C@H]1C(=O)NC(CC1CC1)C(=O)C(N)=O)C2(C)C (mixture of isomers)
6. CC(C)(C)[C@H](NC(=O)N[C@H](C(=O)OCc1ccccc1)C1CCCC1)C(=O)N1C[C@H]2[C@@H]([C@H]1C(=O)NC(CC1CC1)C(=O)C(N)=O)C2(C)C (mixture of isomers)

# output
1: 290; 2: 110; 3: 39; 4: 44; 5: 58; 6: 9

###

- test: AUC in cynomolgus monkey at 3 mg/kg, iv
- Assay type: ADME, organism-based, Macaca fascicularis
- Parameters: dose 3 mg/kg, route intravenous
- conditions: plasma
readout.type: AUC (µM·h)
One number for each entry, in µM·h.

# input Name the recorded AUC for CC(C)(C)[C@H](NC(=O)NC1(C(=O)OCc2ccccc2)CCCCC1)C(=O)N1C[C@H]2[C@@H]([C@H]1C(=O)NC(CC1CC1)C(=O)C(N)=O)C2(C)C (mixture of isomers) .
# output 3.4

###

- test: Inhibition of HCV NS4A-tethered single chain NS3 serine protease by spectrophotometric assay
- Set-up: species or system Hepacivirus hominis
readout.type: Ki
Entry format: amount then unit.

Worked set:
{"columns": ["compound", "Ki"],
 "data": [
  ["CC(C)(C)[C@H](NC(=O)NC1(C(=O)OCC2CC2)CCCCC1)C(=O)N1C[C@H]2[C@@H]([C@H]1C(=O)NC(CC1CC1)C(=O)C(N)=O)C2(C)C (mixture of isomers)", "39 nM"],
  ["CC(C)(C)[C@H](NC(=O)N[C@H](C(=O)C1CC1)C1CCCCC1)C(=O)N1C[C@H]2[C@@H]([C@H]1C(=O)NC(CC1CC1)C(=O)C(N)=O)C2(C)C (mixture of isomers)", "8 nM"]
]}

Switching to the query record.
# input Query: Ki; subject: CC(C)[C@H](NC(=O)N[C@H](C(=O)N1C[C@H]2[C@@H]([C@H]1C(=O)NC(CC1CC1)C(=O)C(N)=O)C2(C)C)C(C)(C)C)C(=O)c1nccs1 (mixture of isomers)
# output 9 nM

###

- test: Inhibition of HCV NS4A-tethered single chain NS3 serine protease by spectrophotometric assay
- Parameters: species or system Hepacivirus hominis
I'd appreciate it if you could supply pKi values for the items below.
One number for each entry, as −log10 of the molar value.

// worked examples, pKi included
{"columns": ["molecule", "pKi"],
 "data": [
  ["CC(C)(C)[C@H](NC(=O)N[C@H](C(=O)OCc1ccccc1)C1CCCCC1)C(=O)N1C[C@H]2[C@@H]([C@H]1C(=O)NC(CC1CC1)C(=O)C(N)=O)C2(C)C (mixture of isomers)", 8.00],
  ["CC(C)[C@H](NC(=O)N[C@H](C(=O)N1C[C@H]2[C@@H]([C@H]1C(=O)NC(CC1CC1)C(=O)C(N)=O)C2(C)C)C(C)(C)C)C(=O)C1CCCCC1 (mixture of isomers)", 7.89],
  ["CC(C)[C@H](NC(=O)N[C@H](C(=O)N1C[C@H]2[C@@H]([C@H]1C(=O)NC(CC1CC1)C(=O)C(N)=O)C2(C)C)C(C)(C)C)C(=O)C1CC1 (mixture of isomers)", 8.15],
  ["C=CCNC(=O)C(=O)C(CCC)NC(=O)[C@@H]1[C@@H]2[C@H](CN1C(=O)[C@@H](NC(=O)N[C@H](C(=O)C1CC1)C1CCCCC1)C(C)(C)C)C2(C)C (mixture of isomers)", 8.00],
  ["C#CCCC(NC(=O)[C@@H]1[C@@H]2[C@H](CN1C(=O)[C@@H](NC(=O)N[C@H](C(=O)C1CC1)C(C)C)C(C)(C)C)C2(C)C)C(=O)C(=O)NC1CC1 (mixture of isomers)", 8.10],
  ["CC(C)(C)[C@H](NC(=O)NC1(C(=O)OCc2ccco2)CCCCC1)C(=O)N1C[C@H]2[C@@H]([C@H]1C(=O)NC(CC1CC1)C(=O)C(N)=O)C2(C)C (mixture of isomers)", 7.55]
]}

# input So what's the measured pKi for this one? CC(C)(C)[C@H](NC(=O)NC1(C(=O)OCc2ccsc2)CCCCC1)C(=O)N1C[C@H]2[C@@H]([C@H]1C(=O)NC(CC1CC1)C(=O)C(N)=O)C2(C)C (mixture of isomers)
# output 7.51

src = ChEMBL document CHEMBL1136954
